Data provenance is patent US8222219B2.

Biological target: human SGLT2 (Homo sapiens, UniProt P31639)
Construct: expressed in transfected cells; host or cells: CHOK1 (CHO-K1) cells, kept under Geneticin selection
Sequence (P31639 whole entry): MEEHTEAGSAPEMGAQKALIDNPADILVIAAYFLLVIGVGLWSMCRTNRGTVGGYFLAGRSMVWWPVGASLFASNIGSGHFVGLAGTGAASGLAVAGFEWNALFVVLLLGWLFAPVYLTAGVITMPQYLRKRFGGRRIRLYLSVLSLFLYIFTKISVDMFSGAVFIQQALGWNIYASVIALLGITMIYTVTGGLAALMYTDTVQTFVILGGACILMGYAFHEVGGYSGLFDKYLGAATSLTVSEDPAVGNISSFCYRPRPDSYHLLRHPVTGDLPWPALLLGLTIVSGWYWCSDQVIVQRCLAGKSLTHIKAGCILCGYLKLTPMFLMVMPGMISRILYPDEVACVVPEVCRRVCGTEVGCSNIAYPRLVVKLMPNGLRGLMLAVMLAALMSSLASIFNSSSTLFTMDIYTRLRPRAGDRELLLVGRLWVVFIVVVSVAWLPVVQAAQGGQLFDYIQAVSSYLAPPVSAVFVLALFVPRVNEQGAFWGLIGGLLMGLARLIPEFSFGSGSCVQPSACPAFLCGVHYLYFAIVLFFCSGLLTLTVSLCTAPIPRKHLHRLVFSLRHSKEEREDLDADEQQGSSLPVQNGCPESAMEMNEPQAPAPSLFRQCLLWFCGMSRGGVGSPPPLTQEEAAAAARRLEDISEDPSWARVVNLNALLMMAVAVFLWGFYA
Assay: Assay for SGLT2 inhibition (14C-AMG uptake in CHOK1 cells expressing human SGLT2)
Format: cell-based
Conditions: CHOK1 cells expressing human SGLT2; 14C-AMG uptake 0.5 mM, 2 hours at 37° C.; read-out: IC50
Please go through the items and note down their pIC50.
Here pIC50 is given on a logarithmic scale as minus log10 of the concentration in mol/L.

# pIC50 lookup, item OC[C@H]1O[C@@H](c2ccc(Cl)c(Cc3ccc(-c4ccc(C(F)F)cc4)s3)c2)[C@H](O)[C@@H](O)[C@@H]1O
8.01

// repeat for OC[C@H]1O[C@@H](c2ccc(Cl)c(Cc3ccc(-c4ccnc(F)c4)s3)c2)[C@H](O)[C@@H](O)[C@@H]1O and report
8.48

Field entry: OC[C@H]1O[C@@H](c2ccc(F)c(Cc3ccc(-c4nccs4)s3)c2)[C@H](O)[C@@H](O)[C@@H]1O
8.51

====

Answer each item with its documented IC50.
Molecular target: human SGLT2 (Homo sapiens)
Construct: expressed in transfected cells; host or cells: CHOK1 (CHO-K1) cells, kept under Geneticin selection
Assay: Assay for SGLT2 inhibition (14C-AMG uptake in CHOK1 cells expressing human SGLT2)
Assay type: cell-based
Settings: CHOK1 cells expressing human SGLT2; 14C-AMG uptake 0.5 mM, 2 hours at 37° C.; read-out: IC50
A number alone suffices; assume nM.

Which IC50 reading was recorded for the compound Cc1ccc([C@@H]2O[C@H](CO)[C@@H](O)[C@H](O)[C@H]2O)cc1Cc1ccc(-c2ccc(C(F)F)cc2)s1 ?
7.7

# iterate: Cc1ccc([C@@H]2O[C@H](CO)[C@@H](O)[C@H](O)[C@H]2O)cc1Cc1ccc(-c2cccc(C#N)n2)s1
1.5

Next up: Cc1ccc([C@@H]2O[C@H](CO)[C@@H](O)[C@H](O)[C@H]2O)cc1Cc1ccc(-c2cccc(C#N)c2)s1
1.3

Proceed to CCOc1cccc(-c2ccc(Cc3cc([C@@H]4O[C@H](CO)[C@@H](O)[C@H](O)[C@H]4O)ccc3C)s2)c1
2.6

Field entry: Cc1ccc([C@@H]2O[C@H](CO)[C@@H](O)[C@H](O)[C@H]2O)cc1Cc1ccc(-c2cccs2)s1
1.2

Entry to check: Cc1nc(-c2ccc(Cc3cc([C@@H]4O[C@H](CO)[C@@H](O)[C@H](O)[C@H]4O)ccc3Cl)s2)cs1
1.4

Likewise for Cc1ccc([C@@H]2O[C@H](CO)[C@@H](O)[C@H](O)[C@H]2O)cc1Cc1ccc(-c2ccc(C#N)nc2)s1 ?
5.4

Repeat for the following compound: Cc1ccc([C@@H]2O[C@H](CO)[C@@H](O)[C@H](O)[C@H]2O)cc1Cc1ccc(-c2cc(F)cc(F)c2)s1
8.2

Please do the same for O=C(O)c1ccc(-c2ccc(Cc3cc([C@@H]4O[C@H](CO)[C@@H](O)[C@H](O)[C@H]4O)ccc3Cl)s2)cc1 as well.
7.4

What do you get for OC[C@H]1O[C@@H](c2ccc(F)c(Cc3ccc(-c4cccc(F)n4)s3)c2)[C@H](O)[C@@H](O)[C@@H]1O ?
5.1

Now consider Cc1ccc([C@@H]2O[C@H](CO)[C@@H](O)[C@H](O)[C@H]2O)cc1Cc1ccc(-c2cccc(OC(F)F)c2)s1 .
1.8

Next record, please: OC[C@H]1O[C@@H](c2ccc(Cl)c(Cc3ccc(-c4ccc(F)cn4)s3)c2)[C@H](O)[C@@H](O)[C@@H]1O
2.6

Thanks! And COc1cccc(-c2ccc(Cc3cc([C@@H]4O[C@H](CO)[C@@H](O)[C@H](O)[C@H]4O)ccc3C)s2)c1 ?
2

And the next one, OC[C@H]1O[C@@H](c2ccc(F)c(Cc3ccc(-c4cccc(F)c4)s3)c2)[C@H](O)[C@@H](O)[C@@H]1O ?
6.8

# iterate: Cc1cccc(-c2ccc(Cc3cc([C@@H]4O[C@H](CO)[C@@H](O)[C@H](O)[C@H]4O)ccc3Cl)s2)c1
3.4

Same again, this time with CCOc1cccc(-c2ccc(Cc3cc([C@@H]4O[C@H](CO)[C@@H](O)[C@H](O)[C@H]4O)ccc3Cl)s2)n1
8

Do the same for N#Cc1ccc(-c2ccc(Cc3cc([C@@H]4O[C@H](CO)[C@@H](O)[C@H](O)[C@H]4O)ccc3Cl)s2)cc1F please
9.5

Also check Cc1csc(-c2ccc(Cc3cc([C@@H]4O[C@H](CO)[C@@H](O)[C@H](O)[C@H]4O)ccc3Cl)s2)n1
1.2

Record: OC[C@H]1O[C@@H](c2ccc(Cl)c(Cc3ccc(-c4cccc(Cl)c4)s3)c2)[C@H](O)[C@@H](O)[C@@H]1O
2.6

Also Cc1ccc([C@@H]2O[C@H](CO)[C@@H](O)[C@H](O)[C@H]2O)cc1Cc1ccc(-c2ccnc(F)c2)s1 ?
3.6

How about COc1c(Cc2ccc(-c3cccc(C#N)c3)s2)cc([C@@H]2O[C@H](CO)[C@@H](O)[C@H](O)[C@H]2O)c2ccccc12 ?
1.5

What about this compound? Cc1ccc([C@@H]2O[C@H](CO)[C@@H](O)[C@H](O)[C@H]2O)cc1Cc1cc2ccc(OC(F)F)cc2s1
5.9

Then this compound: Cc1ccc([C@@H]2O[C@H](CO)[C@@H](O)[C@H](O)[C@H]2O)cc1Cc1ccc(-c2ccc3c(c2)OCO3)s1
4

Do the same for Cc1ccc([C@@H]2O[C@H](CO)[C@@H](O)[C@H](O)[C@H]2O)cc1Cc1ccc(-c2ccc(C#N)cc2)s1 please
2.5

Input CCOc1ccc(-c2ccc(Cc3cc([C@@H]4O[C@H](CO)[C@@H](O)[C@H](O)[C@H]4O)ccc3Cl)s2)cc1
6.6

Another: OC[C@H]1O[C@@H](c2ccc(Cl)c(Cc3ccc(-c4cccc(F)c4)s3)c2)[C@H](O)[C@@H](O)[C@@H]1O
1.7
